# MEASURED_TARGET: acetylcholine receptor
# ASSAY_NOTES: SPR, receptor on CM5 chip, peptide 10 µM
Provide the reported Binding affinity (RU) of each item.
Answers are plain numbers, in RU.

Example entries and their recorded answers appear below.
# BINDER, UNIT_TAG, Binding affinity (RU)
rows = [
    ("KRLQCR [6mer-1-98]", "RU", 154),
    ("KRRLCR [6mer-1-125]", "RU", 135),
    ("KKLFRR [6mer-1-490]", "RU", 133),
    ("KKLFSR [6mer-1-494]", "RU", 128),
    ("KRWFYK [6mer-1-71]", "RU", 121),
    ("KKRYLR [6mer-1-109]", "RU", 148),
    ("KRSYTR [6mer-1-528]", "RU", 139),
]

Now for a further binder.
Incoming: What measured Binding affinity (RU) goes with KKRFSR [6mer-1-516] ?
Outgoing: 139
